Hello, the source for this data is patent US20160264593A1, in case you need it.

experiment: in vivo; details: female, SD, rat, in vivo, iv, 1 mg/kg, Tmax of 100
Quantity name: Tmax (min)
// units = min; emit number, no label

Prompt: May I ask what Tmax has been recorded for CN1CCN(C(=O)C2C3CCC(O3)C2C(=O)O)CC1 (stereo not shown) [Compound 100] ?
Response: 15

* * *

assay: in vivo; parameters: species or system SD rats; details: male, SD, rat, po, 1.4 mg/kg, plasma concentration of 113
Quantity name: concentration at 2 h (ng/mL)
The figure you give is taken to be in ng/mL; do not add the unit.

Prompt: Can you look up the measured concentration at 2 h of CN1CCN(C(=O)C2C(C(=O)OCC(Cl)(Cl)Cl)[C@H]3CC[C@@H]2O3)CC1 (stereo partly shown) [Compound 113] for me?
Response: 2.15

* * *

assay: Pharmacokinetic study of 100 (and metabolite endothal) in SD rats, iv; plasma, liver, brain; settings: female, SD, rat, in vivo, iv, 1.5 mg/kg, Endothal liver concentration, 100 iv 1.5 mg/kg, SD rats, 24 hr, individual
Quantity name: concentration at 24 h (ng/g)
Answer with a number only, understood to be in ng/g.

Prompt: # query: concentration at 24 h of entry O=C(O)C1C2CCC(O2)C1C(=O)O (stereo not shown) [Endothal]
Response: 75

* * *

assay: Pharmacokinetic study of 157 (and metabolite endothal) in SD rats, iv and po; plasma, liver, brain; type: in vivo; details: female, Sprague-Dawley (SD), rat, in vivo, iv, 1.5 mg/kg, 157 in Liver, iv 1.5 mg/kg, rat 2; read-out: MRT (0-t)
Quantity name: MRT last (min)
Respond numerically; units are min and should not be typed.

Prompt: Report MRT last for CCCCCCCOC(=O)C1C2CCC(O2)C1C(=O)N1CCN(C)CC1 (stereo not shown) [Compound 157] please.
Response: 38.8

* * *

test: in vivo; conditions: male, Sprague-Dawley, rat, in vivo, po, 10 mg/kg, T1/2 of 100
Quantity name: half-life (h)
Report the value in h with no unit label.

Prompt: Query (compound): CN1CCN(C(=O)C2C3CCC(O3)C2C(=O)O)CC1 (stereo not shown) [Compound 100] ; field requested: half-life
Response: 1.38

* * *

experiment: Pharmacokinetic study of 153 (and metabolite endothal) in SD rats, iv and po; plasma, liver, brain; type: in vivo; settings: female, SD, rat, in vivo, iv, 1.25 mg/kg, iv 1.25 mg/kg, 6 hr, Rat 1
Quantity name: concentration at 6 h (ng/mL)
Please respond with the number in ng/mL and leave the unit unwritten.

Prompt: Quick one: concentration at 6 h for CCCOC(=O)C1C2CCC(O2)C1C(=O)N1CCN(C)CC1 (stereo not shown) ?
Response: 1.04

* * *

assay: Pharmacokinetic study of 157 (and metabolite endothal) in SD rats, iv and po; plasma, liver, brain; format: in vivo; settings: female, SD (Sprague-Dawley), rat, in vivo, iv, 1.5 mg/kg, 157 in plasma, IV 1.5 mg/kg, Mean; read-out: AUC
Quantity name: AUC (ng·h/mL)
Write the value in ng·h/mL as a bare number.

Prompt: Any idea what its AUC is? The compound is CCCCCCCOC(=O)C1C2CCC(O2)C1C(=O)N1CCN(C)CC1 (stereo not shown)
Response: 47.2

* * *

assay: in vivo; conditions: female, Sprague-Dawley, rat, in vivo, iv, 0.5 mg/kg, 100 plasma concentration
Quantity name: concentration at 2 h (µg/mL)
Return type: number; implicit unit µg/mL.

Prompt: I have this molecule here, CN1CCN(C(=O)C2C3CCC(O3)C2C(=O)O)CC1 (stereo not shown) [Compound 100] , and I need its recorded concentration at 2 h.
Response: 0.0258
